- Assay details: in vitro
- Run conditions: human
Measurement label: CC50 at 3 days

Need CC50 at 3 days, item COc1c(C(C)(C)C)cc(-n2ccc(=O)[nH]c2=O)c2ccc(-c3ccc(NS(C)(=O)=O)cc3)nc12 [Compound I-3]
44 µM
